Assay: Retention time of the compound by LC-MS analysis
Type: physicochemical
readout: Retention_time (min)
Form entry: value (min) — number only.

Task item: Retention_time lookup needed for `C[C@@]1(O)CC[C@H]2[C@H](CC[C@@H]3[C@@H]2CC[C@]2(C)[C@@H](C(=O)Cn4cccn4)CC[C@@H]32)C1` , thanks.
Reply: 0.88

Task item: Can you check `C[C@@]1(O)CC[C@H]2[C@@H](CC[C@@H]3[C@@H]2CC[C@]2(C)[C@@H](C(=O)Cn4nccn4)CC[C@@H]32)C1` next?
Reply: 0.889

Task item: Then `C[C@@]1(O)CC[C@H]2[C@@H](CC[C@@H]3[C@@H]2CC[C@]2(C)[C@@H](C(=O)Cn4ncnn4)CC[C@@H]32)C1` ?
Reply: 0.88
